- assay-overview: physchem
- assay-conditions: organic solvent or mixture, thermodynamic from solid, Solubility in DMSO, Lab 2
value-type: solubility

Give the measured solubility of CC(C)(c1ccc(O)cc1)c1ccc(O)cc1 [Bisphenol A] .
> 50 mg/mL

====

- assay-overview: Solubility testing (visual inspection, centrifugation, microscopy)
- assay-conditions: assay medium, aqueous buffer, kinetic from dmso stock, Solubility in medium, Lab 2, assay medium, Lab 2
Reported solubility by item:

Before answering, review these 2 worked examples.
CC(=O)O[C@]1(C(C)=O)CC[C@H]2[C@@H]3C[C@H](C)C4=CC(=O)CC[C@]4(C)[C@H]3CC[C@@]21C [Medroxyprogesterone acetate]    5 µg/mL
CC(=O)S[C@@H]1CC2=CC(=O)CC[C@]2(C)[C@H]2CC[C@@]3(C)[C@@H](CC[C@@]34CCC(=O)O4)[C@H]12    > 50 µg/mL

Give the measured solubility of CC(O)(CS(=O)(=O)c1ccc(F)cc1)C(=O)Nc1ccc(C#N)c(C(F)(F)F)c1 (stereo not drawn) [Bicalutamide] .
> 50 µg/mL

====

- assay-overview: physchem
- assay-conditions: aqueous buffer, kinetic from dmso stock, Solubility in medium, Lab 4
value-type: solubility

Give the measured solubility of CC(C)(c1ccc(O)cc1)c1ccc(O)cc1 [Bisphenol A] .
> 50 µg/mL

====

- assay-overview: physchem
- assay-conditions: organic solvent or mixture, thermodynamic from solid, Solubility in DMSO, Lab 1
value-type: solubility

Give the measured solubility of CC(C)(c1ccc(O)cc1)c1ccc(O)cc1 [Bisphenol A] .
> 50 mg/mL

====

- assay-overview: physchem
- assay-conditions: aqueous buffer, kinetic from dmso stock, Solubility in medium, Lab 1
value-type: solubility (µg/mL)
# output: bare number, implied unit µg/mL

Give the measured solubility of CC(C)(c1ccc(O)cc1)c1ccc(O)cc1 .
15

====

- assay-overview: physchem
- assay-conditions: aqueous buffer, kinetic from dmso stock, Solubility in medium, Lab 2, assay medium, Lab 2
- Method: It details the cell cultivation and seeding procedure, the preparation of the reference, control and test chemicals, the procedure for agonist testing and antagonist testing, prescreen runs, and comprehensive runs, as well as data analysis and data interpretation. This SOP also includes references to the SOPs for solubility testing and cytotoxicity testing. […] Starting from the highest soluble concentration, cytotoxicity was determined with an LDH assay. […]
value-type: solubility

Before answering, review these 3 worked examples.
C[C@]1(O)CC[C@H]2[C@@H]3CCC4=CC(=O)CC[C@]4(C)[C@@]3(F)[C@@H](O)C[C@@]21C [Fluoxymesterone]    5 µg/mL
C=CC1(C)OC(=O)N(c2cc(Cl)cc(Cl)c2)C1=O (centres unmarked) [Vinclozolin]    15 µg/mL
C[C@]12Cc3c[nH]nc3C[C@@H]1CC[C@@H]1[C@@H]2CC[C@@]2(C)[C@H]1CC[C@]2(C)O [Stanozolol]    5 µg/mL

Give the measured solubility of CCN(CC)C(=S)SSC(=S)N(CC)CC [Disulfiram] .
15 µg/mL

Give the measured solubility of CCCCOC(=O)c1ccccc1C(=O)OCc1ccccc1 [Benzylbutyl phthalate] .
> 50 µg/mL

====

Reported solubility by item:
- assay-overview: physchem
- assay-conditions: organic solvent or mixture, thermodynamic from solid, Solubility in DMSO, Lab 3, DMSO, Lab 3, highest tested 50 mg/ml

Before answering, review these 3 worked examples.
CCN(CC)C(=S)SSC(=S)N(CC)CC    > 50 mg/mL
C[C@]12Cc3c[nH]nc3C[C@@H]1CC[C@@H]1[C@@H]2CC[C@@]2(C)[C@H]1CC[C@]2(C)O    15 mg/mL
CCCCOC(=O)c1ccccc1C(=O)OCc1ccccc1 [Benzylbutyl phthalate]    > 50 mg/mL

Give the measured solubility of C=CC1(C)OC(=O)N(c2cc(Cl)cc(Cl)c2)C1=O (centres unmarked) .
> 50 mg/mL

Give the measured solubility of C[C@]1(O)CC[C@H]2[C@@H]3CCC4=CC(=O)CC[C@]4(C)[C@@]3(F)[C@@H](O)C[C@@]21C .
> 50 mg/mL

====

- assay-overview: physchem
- assay-conditions: organic solvent or mixture, thermodynamic from solid, Solubility in DMSO, Lab 2, DMSO, Lab 2, highest tested 50 mg/ml
Reported solubility by item:

CCCCOC(=O)c1ccccc1C(=O)OCc1ccccc1 [Benzylbutyl phthalate]    > 50 mg/mL
CCN(CC)C(=S)SSC(=S)N(CC)CC    > 50 mg/mL
C[C@]12Cc3c[nH]nc3C[C@@H]1CC[C@@H]1[C@@H]2CC[C@@]2(C)[C@H]1CC[C@]2(C)O    > 50 mg/mL
C=CC1(C)OC(=O)N(c2cc(Cl)cc(Cl)c2)C1=O (centres unmarked)    > 50 mg/mL

Attention now turns to another entry.
Give the measured solubility of C[C@]1(O)CC[C@H]2[C@@H]3CCC4=CC(=O)CC[C@]4(C)[C@@]3(F)[C@@H](O)C[C@@]21C .
5 mg/mL

====

- assay-overview: physchem
- assay-conditions: aqueous buffer, kinetic from dmso stock, Solubility in medium, Lab 3
value-type: solubility

Give the measured solubility of CC(C)(c1ccc(O)cc1)c1ccc(O)cc1 .
> 50 µg/mL

====

- assay-overview: physchem
- assay-conditions: aqueous buffer, kinetic from dmso stock, Solubility in medium, Lab 4, assay medium, Lab 4
Reported solubility by item:
# output: bare number, implied unit µg/mL

Before answering, review these 4 worked examples.
CCN(CC)C(=S)SSC(=S)N(CC)CC    15
C[C@]1(O)CC[C@H]2[C@@H]3CCC4=CC(=O)CC[C@]4(C)[C@@]3(F)[C@@H](O)C[C@@]21C    15
C[C@]12Cc3c[nH]nc3C[C@@H]1CC[C@@H]1[C@@H]2CC[C@@]2(C)[C@H]1CC[C@]2(C)O    5
CCCCOC(=O)c1ccccc1C(=O)OCc1ccccc1 [Benzylbutyl phthalate]    15

Attention now turns to another entry.
Give the measured solubility of C=CC1(C)OC(=O)N(c2cc(Cl)cc(Cl)c2)C1=O (centres unmarked) .
15

====

- assay-overview: physchem
- assay-conditions: aqueous buffer, kinetic from dmso stock, Solubility in medium, Lab 2
value-type: solubility

Give the measured solubility of CC(C)(c1ccc(O)cc1)c1ccc(O)cc1 [Bisphenol A] .
> 50 µg/mL

====

- assay-overview: Solubility testing (visual inspection, centrifugation, microscopy)
- assay-conditions: assay medium, aqueous buffer, kinetic from dmso stock, Solubility in medium, Lab 4, assay medium, Lab 4
Reported solubility by item:

Before answering, review these 2 worked examples.
CC(O)(CS(=O)(=O)c1ccc(F)cc1)C(=O)Nc1ccc(C#N)c(C(F)(F)F)c1 (stereo not drawn) [Bicalutamide]    > 50 µg/mL
CC(=O)O[C@]1(C(C)=O)CC[C@H]2[C@@H]3C[C@H](C)C4=CC(=O)CC[C@]4(C)[C@H]3CC[C@@]21C [Medroxyprogesterone acetate]    5 µg/mL

Give the measured solubility of CC(=O)S[C@@H]1CC2=CC(=O)CC[C@]2(C)[C@H]2CC[C@@]3(C)[C@@H](CC[C@@]34CCC(=O)O4)[C@H]12 .
> 50 µg/mL

====

- assay-overview: physchem
- assay-conditions: organic solvent or mixture, thermodynamic from solid, Solubility in DMSO, Lab 1, DMSO, Lab 1, highest tested 50 mg/ml
Reported solubility by item:

CCCCOC(=O)c1ccccc1C(=O)OCc1ccccc1 [Benzylbutyl phthalate]    > 50 mg/mL
C=CC1(C)OC(=O)N(c2cc(Cl)cc(Cl)c2)C1=O (centres unmarked) [Vinclozolin]    > 50 mg/mL
C[C@]1(O)CC[C@H]2[C@@H]3CCC4=CC(=O)CC[C@]4(C)[C@@]3(F)[C@@H](O)C[C@@]21C [Fluoxymesterone]    > 50 mg/mL
C[C@]12Cc3c[nH]nc3C[C@@H]1CC[C@@H]1[C@@H]2CC[C@@]2(C)[C@H]1CC[C@]2(C)O [Stanozolol]    5 mg/mL

Attention now turns to another entry.
Give the measured solubility of CCN(CC)C(=S)SSC(=S)N(CC)CC [Disulfiram] .
> 50 mg/mL

====

- assay-overview: Solubility testing (visual inspection, centrifugation, microscopy)
- assay-conditions: DMSO, organic solvent or mixture, thermodynamic from solid, Solubility in DMSO, Lab 2, DMSO, Lab 2, highest tested 50 mg/ml
Reported solubility by item:

Before answering, review these 2 worked examples.
CC(O)(CS(=O)(=O)c1ccc(F)cc1)C(=O)Nc1ccc(C#N)c(C(F)(F)F)c1 (stereo not drawn) [Bicalutamide]    > 50 mg/mL
CC(=O)S[C@@H]1CC2=CC(=O)CC[C@]2(C)[C@H]2CC[C@@]3(C)[C@@H](CC[C@@]34CCC(=O)O4)[C@H]12 [Spironolactone]    > 50 mg/mL

Attention now turns to another entry.
Give the measured solubility of CC(=O)O[C@]1(C(C)=O)CC[C@H]2[C@@H]3C[C@H](C)C4=CC(=O)CC[C@]4(C)[C@H]3CC[C@@]21C [Medroxyprogesterone acetate] .
15 mg/mL

src = paper PMC8557474
